Entry source: the Kinase Knowledgebase extract (Sharma et al. 2016)

- targetOrTestSystem: UniProt P00533
- Sequence (P00533 whole entry, looked up): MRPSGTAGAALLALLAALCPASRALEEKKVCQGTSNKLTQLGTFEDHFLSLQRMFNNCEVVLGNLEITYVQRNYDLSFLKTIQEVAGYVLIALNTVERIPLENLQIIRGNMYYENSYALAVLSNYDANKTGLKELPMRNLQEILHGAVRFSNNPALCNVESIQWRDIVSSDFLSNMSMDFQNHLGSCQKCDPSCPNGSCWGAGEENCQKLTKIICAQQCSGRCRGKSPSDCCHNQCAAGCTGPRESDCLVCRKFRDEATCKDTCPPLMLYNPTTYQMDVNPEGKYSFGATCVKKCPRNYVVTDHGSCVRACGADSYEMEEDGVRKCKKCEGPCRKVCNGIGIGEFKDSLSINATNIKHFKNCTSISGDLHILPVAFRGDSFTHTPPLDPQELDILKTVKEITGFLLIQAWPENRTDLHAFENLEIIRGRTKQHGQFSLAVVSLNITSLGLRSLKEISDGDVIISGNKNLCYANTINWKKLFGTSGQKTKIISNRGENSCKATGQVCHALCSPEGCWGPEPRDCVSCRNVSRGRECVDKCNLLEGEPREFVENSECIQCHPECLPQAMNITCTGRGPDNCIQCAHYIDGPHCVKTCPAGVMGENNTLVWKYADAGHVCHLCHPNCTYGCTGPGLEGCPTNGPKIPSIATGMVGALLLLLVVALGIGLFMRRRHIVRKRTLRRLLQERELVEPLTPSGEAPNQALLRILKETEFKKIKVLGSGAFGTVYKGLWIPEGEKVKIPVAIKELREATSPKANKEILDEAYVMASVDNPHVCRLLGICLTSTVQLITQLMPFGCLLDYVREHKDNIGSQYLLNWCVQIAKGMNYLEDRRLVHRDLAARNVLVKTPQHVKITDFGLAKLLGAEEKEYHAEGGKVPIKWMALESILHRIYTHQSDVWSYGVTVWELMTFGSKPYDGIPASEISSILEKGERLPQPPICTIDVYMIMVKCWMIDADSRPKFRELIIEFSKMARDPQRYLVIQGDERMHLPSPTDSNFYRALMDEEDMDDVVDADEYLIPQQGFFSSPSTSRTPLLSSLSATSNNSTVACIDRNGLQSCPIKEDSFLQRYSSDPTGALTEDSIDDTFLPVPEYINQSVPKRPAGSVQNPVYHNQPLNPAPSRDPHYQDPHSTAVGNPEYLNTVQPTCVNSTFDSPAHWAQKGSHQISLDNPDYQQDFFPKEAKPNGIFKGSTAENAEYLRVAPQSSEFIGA
recordedMetric: IC50

Reported IC50 of Cc1cc(C(C)Nc2ccccc2)c2nc(N3CCOCC3)cc(=O)n2c1 (stereo unspecified) : > 10 µM

* * *

Record set of IC50 for target or system PIK3CD (Human).
Numeric answer only, unit µM assumed.

Completed entries (count: 2):
- compound: "Cc1cc(CNc2ccccc2)c2oc(-c3ccncc3)cc(=O)c2c1"
  IC50 (µM): 10
- compound: "CC(Nc1ccccc1N)c1cccc2c(=O)cc(-c3ccncc3)oc12 (centres undefined)"
  IC50 (µM): 0.5

For the next question, use this compound.
Reported IC50 of "O=c1cc(-c2ccncc2)[nH]c2c(-c3ccccc3)cccc12" : 10

* * *

- targetOrTestSystem: PIK3CB (Human)
- assayMethodText: Inhibition of U937 Cell Proliferation
recordedMetric: pIC50
Remember the convention: pIC50 equals -log10 of concentration in molar.

- compound: "Cc1cc(C(C)Nc2ccccc2)c2oc(-c3ccncc3)cc(=O)c2c1 (configuration not stated)"
  experimentalValue: 5.30

For the next question, use this compound.
Reported pIC50 (PIK3CB (Human)) for entry CC(Nc1ccccc1N)c1cccc2c(=O)cc(-c3ccncc3)oc12 (configuration not stated) is 4.70

* * *

- targetOrTestSystem: UniProtKB P48736
- Sequence (P48736 whole entry, looked up): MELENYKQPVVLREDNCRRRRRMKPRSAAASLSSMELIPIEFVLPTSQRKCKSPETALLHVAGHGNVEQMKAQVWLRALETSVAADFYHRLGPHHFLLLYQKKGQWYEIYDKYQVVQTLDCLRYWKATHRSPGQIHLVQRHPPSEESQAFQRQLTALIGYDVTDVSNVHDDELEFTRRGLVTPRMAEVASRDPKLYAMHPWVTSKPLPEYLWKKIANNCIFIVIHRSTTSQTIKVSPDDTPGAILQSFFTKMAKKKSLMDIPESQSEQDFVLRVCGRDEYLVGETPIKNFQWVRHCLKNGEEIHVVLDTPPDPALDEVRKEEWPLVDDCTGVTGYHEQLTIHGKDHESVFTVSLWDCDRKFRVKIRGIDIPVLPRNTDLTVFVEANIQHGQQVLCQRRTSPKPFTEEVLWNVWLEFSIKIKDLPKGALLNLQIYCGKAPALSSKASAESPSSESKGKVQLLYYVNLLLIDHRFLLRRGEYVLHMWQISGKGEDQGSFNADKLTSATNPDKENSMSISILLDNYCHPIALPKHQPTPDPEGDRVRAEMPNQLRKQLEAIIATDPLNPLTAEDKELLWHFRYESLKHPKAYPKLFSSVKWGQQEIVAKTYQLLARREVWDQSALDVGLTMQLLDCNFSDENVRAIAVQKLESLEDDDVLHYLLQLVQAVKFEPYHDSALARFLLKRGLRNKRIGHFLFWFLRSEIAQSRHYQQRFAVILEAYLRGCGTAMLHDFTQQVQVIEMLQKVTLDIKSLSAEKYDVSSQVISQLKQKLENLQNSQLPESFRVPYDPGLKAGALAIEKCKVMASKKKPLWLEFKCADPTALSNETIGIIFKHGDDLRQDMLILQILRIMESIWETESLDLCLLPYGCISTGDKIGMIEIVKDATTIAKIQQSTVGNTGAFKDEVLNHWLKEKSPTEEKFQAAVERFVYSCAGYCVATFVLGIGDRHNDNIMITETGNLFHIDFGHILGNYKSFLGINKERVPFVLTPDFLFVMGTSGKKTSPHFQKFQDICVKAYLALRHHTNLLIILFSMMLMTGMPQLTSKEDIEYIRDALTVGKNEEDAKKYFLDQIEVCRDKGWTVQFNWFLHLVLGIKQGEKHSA
- assayMethodText: Inhibition of PIK3CG Kinase Activity
recordedMetric: pIC50
Remember the convention: pIC50 equals -log10 of concentration in molar.

- compound: "O=c1cc(-c2ccncc2)oc2c(OCc3ccccc3)cccc12"
  pIC50: 5.00
- compound: "Cc1cc(COc2ccccc2)c2oc(-c3ccncc3)cc(=O)c2c1"
  pIC50: 5.00
- compound: "Cc1cc(C(C)Oc2ccccc2)c2oc(-c3ccncc3)cc(=O)c2c1 (configuration not stated)"
  pIC50: 4.70
- compound: "Cc1cc(CNc2ccccc2)c2oc(-c3ccncc3)cc(=O)c2c1"
  pIC50: 5.00
- compound: "Cc1cc(N[C@H](C)c2ccccc2)c2nc(-c3ccncc3)cc(=O)n2c1"
  pIC50: 4.70

For the next question, use this compound.
Reported pIC50 of Cc1cc(C(C)n2c(C(F)(F)F)nc3ccccc32)c2oc(-c3ccncc3)cc(=O)c2c1 (configuration not stated) : 5.00
